system: FXR:RXRa (NR concentration 270 nM, RXRa partner concentration 90 nM); assay: PBM binding z-score (relative to random genomic background probes); higher = stronger binding; sequences stand for … in GC…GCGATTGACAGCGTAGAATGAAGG
measured_metric: PBM binding z-score
One number for each entry.

CGTCCAAGGCCAAAGGTCAGTGAAGAGATGACGG = 4.06
CCTACTGGGCCATTCATAGGTCATTGATCATATG = 0.867

In the following, a different sequence is considered.
The sequence listed as "GCTGCTAGGTCCACTGATGGTCAGCTAAAGCTCG" has a reported PBM binding z-score of -0.489

---

test system: LXRa:RXRa (NR concentration 270 nM, RXRa partner concentration 90 nM); assay: PBM binding z-score (relative to random genomic background probes); higher = stronger binding; sequences stand for … in GC…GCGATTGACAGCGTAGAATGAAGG
measured_metric: PBM binding z-score
Answers are plain numbers.

Known PBM binding z-score results, listed for orientation:
TGAATGAGGTTTTAAGATCAGGGAACGTTGCAAA = -0.516
AGTCAAAGTTCACTAGGTAACCTAAGATTCAGCT = 5.38
CGAACTAGGTCATTGACAAGACAGTGAATAGTAA = 2.42
CCGACTGGGGCAATGGTTACCATACTCAGTACGA = -0.63

Give measured PBM binding z-score for every item shown.
1. ATATGAAGGTTACATCCGGGTCATTCAGGCTATG
2. CCTAGCAGGCCAATCTGGGTCATTCAAGGCTTGA
3. TCTATTAGTTGAAGGTCAACCGACGAGTCCGTTT

[4.87, 1.52, 4.66]

Give measured PBM binding z-score for every item shown.
1. GCTGCTAGGTCAACTTATGGTCAGCTAAAGCTCG
2. CCTACTGGGCCAAAGGTCATTTATTCCAATGCTC
3. TCATATAGGTAATGCAGGTGAAAGTCGGCATCTA
4. ACTAGCAGACCAAGGGTCACTCAAGATTAGTCCG
5. TCTATTAGTTGAACGGCAACCGACGAGTCCGTTT
6. ATCTCTAGGTAAGACTCAGTTCAGTGGAGAACGC
7. CAAACTAGGTCTAGGTCAAAGTCGGTTTGTGCCA
8. CGTCAAAGTTCAATGTAACGTAACAGAAAGCAGC

2.98
5.02
0.973
2.89
0.618
0.505
2.04
5.08

Give measured PBM binding z-score for every item shown.
1. TCCGACAGGTGAAGGTAACTCAGGTACGCAGTCG
2. CGAACTAGGTCATGGACAGGACAGTGAATAGTAA
3. TCTTGTAGATGAAAGGTTAAGAAAGCCGAAGCCT
4. ATCTCTAGGTAACAAGTTCAGTGTAAGAGAGGAC

1. 1.48
2. 2.37
3. 1.83
4. 0.672

---

system: PPARg:RXRa DBDmut IVT, anti-RXR (DBD mutation: RXRa K156A/R161A, NR concentration 270 nM, RXRa partner concentration 90 nM); experiment: PBM binding z-score (relative to random genomic background probes); higher = stronger binding; sequences stand for … in GC…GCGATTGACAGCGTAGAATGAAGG
For each entry below, report its PBM binding z-score value.
Answers are plain numbers.

Known PBM binding z-score results, listed for orientation:
CTTCCAAGGTCAAGGTCAGTGAAAGAGACTCGAA = 3.34
CAAACTAGGTCACCTGAAGGTCAAAGTCCGCATG = 8.35
GCGACTGGTGCATCAGCAGGTTACCATAACTTAA = -0.556

Give measured PBM binding z-score for every item shown.
1. TCTCGGAGGACACGAAGGTCAGAACTTTCCAGAG
2. ACTAGCAGGCCAAGGGTCAATCAAGATTAGTCCG
3. GCTTGTAGATTAAGGTTAAGAAAGACTAAGCTAA
4. GTACCACGGTGAATAGGTCGTTGATGAGTAGGCG
5. ATCGAAAGGTAGAGGTGAGTATAGAGAAAGGGAA
6. CCTAGCAGGCCAATCTGGGTCACCCAAGGCTTGA

1.69
1.29
-0.0536
-0.0107
-0.16
3.64

Numbers sourced from the supplement of paper PMC6555819.
